molecular target: T1, Ala mutant having 3-amino acid substitution, SEQ ID NO: 47; assay: ELISA, coated peptide
T1 peptide: EENMDDQWMAAAMEIGY
# maps each entry to its OD 490/630 nm
Give your answer as a number; write no unit.

Reference set, count: 2
1. G8 (antibody, V domains shown, Chicken variable regions in a mouse chimeric antibody (IgG1); also called anti-PAD4 antibody G8) VH: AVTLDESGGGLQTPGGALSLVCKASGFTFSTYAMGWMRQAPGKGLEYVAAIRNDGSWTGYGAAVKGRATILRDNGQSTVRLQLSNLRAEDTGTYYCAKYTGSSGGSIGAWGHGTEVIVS VL: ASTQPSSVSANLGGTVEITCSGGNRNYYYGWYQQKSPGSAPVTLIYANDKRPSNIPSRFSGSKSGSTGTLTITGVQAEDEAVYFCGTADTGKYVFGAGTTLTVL | 1.86
2. A11 (antibody, V domains shown, Chicken variable regions in a mouse chimeric antibody (IgG1); also called anti-PAD4 antibody A11) VH: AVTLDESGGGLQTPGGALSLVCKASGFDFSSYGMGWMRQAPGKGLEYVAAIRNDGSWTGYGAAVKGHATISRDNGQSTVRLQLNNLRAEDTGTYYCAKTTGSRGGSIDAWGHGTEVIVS VL: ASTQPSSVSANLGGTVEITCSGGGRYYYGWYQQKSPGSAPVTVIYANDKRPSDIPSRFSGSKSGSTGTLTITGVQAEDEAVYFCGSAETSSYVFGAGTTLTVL | 1.25

As a next step, examine the binder that follows.
What does the record list as OD 490/630 nm for G6 (antibody, V domains shown, Chicken variable regions in a mouse chimeric antibody (IgG1); also called anti-PAD4 antibody G6) VH: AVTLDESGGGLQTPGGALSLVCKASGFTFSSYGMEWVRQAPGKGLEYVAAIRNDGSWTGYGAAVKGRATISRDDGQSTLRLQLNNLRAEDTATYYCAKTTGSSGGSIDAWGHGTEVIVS VL: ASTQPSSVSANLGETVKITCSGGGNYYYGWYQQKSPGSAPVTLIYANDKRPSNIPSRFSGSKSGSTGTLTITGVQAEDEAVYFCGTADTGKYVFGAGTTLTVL ?
1.73
